Reported EC50 values are given for each entry in this list.
Target: F508delCFTR (Homo sapiens, UniProt P13569, DEL508-508)
Construct: expressed in transfected cells; host or cells: CFBE41o- human lung-derived epithelial cells (CFBE4lo-F508delCFTR-HRP), doxycycline-inducible
Sequence (P13569 with tags, fused parts or gaps DEL508-508): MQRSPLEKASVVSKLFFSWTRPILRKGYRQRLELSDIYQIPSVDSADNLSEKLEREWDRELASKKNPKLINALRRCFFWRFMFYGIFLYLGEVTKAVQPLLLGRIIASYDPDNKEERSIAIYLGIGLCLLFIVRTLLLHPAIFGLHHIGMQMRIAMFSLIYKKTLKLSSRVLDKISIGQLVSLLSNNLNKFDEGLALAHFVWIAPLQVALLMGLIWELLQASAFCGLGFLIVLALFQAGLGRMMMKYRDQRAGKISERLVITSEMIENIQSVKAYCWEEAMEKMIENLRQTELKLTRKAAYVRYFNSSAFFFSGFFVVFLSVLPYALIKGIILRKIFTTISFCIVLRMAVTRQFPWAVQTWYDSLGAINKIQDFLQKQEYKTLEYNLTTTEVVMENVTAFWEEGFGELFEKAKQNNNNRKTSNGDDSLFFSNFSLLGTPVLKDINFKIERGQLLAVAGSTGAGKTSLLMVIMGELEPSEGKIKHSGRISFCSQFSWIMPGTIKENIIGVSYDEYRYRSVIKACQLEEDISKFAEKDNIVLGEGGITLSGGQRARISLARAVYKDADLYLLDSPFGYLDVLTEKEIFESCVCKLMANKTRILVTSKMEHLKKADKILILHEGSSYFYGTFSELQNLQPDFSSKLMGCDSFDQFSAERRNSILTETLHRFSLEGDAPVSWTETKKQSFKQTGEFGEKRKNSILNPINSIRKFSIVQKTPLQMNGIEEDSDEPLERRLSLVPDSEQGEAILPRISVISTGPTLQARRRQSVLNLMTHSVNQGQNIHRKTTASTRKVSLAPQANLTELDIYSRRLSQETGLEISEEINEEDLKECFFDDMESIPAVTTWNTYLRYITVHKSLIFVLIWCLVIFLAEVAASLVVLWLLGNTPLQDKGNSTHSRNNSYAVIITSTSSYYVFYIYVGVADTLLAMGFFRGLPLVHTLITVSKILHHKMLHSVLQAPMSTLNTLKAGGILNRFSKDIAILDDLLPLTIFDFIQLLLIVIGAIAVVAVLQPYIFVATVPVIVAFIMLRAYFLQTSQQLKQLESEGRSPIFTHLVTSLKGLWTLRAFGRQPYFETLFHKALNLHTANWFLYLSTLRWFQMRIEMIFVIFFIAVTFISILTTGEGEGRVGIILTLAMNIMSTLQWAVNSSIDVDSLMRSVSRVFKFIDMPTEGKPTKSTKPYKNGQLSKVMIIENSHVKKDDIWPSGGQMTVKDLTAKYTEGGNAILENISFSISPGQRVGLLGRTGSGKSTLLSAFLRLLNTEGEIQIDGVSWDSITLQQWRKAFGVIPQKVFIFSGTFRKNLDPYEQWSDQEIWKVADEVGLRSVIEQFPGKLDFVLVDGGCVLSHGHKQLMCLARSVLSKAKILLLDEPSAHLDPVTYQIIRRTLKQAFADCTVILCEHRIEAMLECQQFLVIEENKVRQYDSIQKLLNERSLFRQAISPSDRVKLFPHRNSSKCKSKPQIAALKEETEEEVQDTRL
Test: Cell Surface Expression-Horse Radish Peroxidase (CSE-HRP) Assay
Type: cell-based
Conditions: with co-corrector (2 μM of 3-[(2R,4R)-4-({[1-(2,2-difluoro-1,3-benzodioxol-5-yl)cyclopropyl]carbonyl}amino)-7-methoxy-3,4-dihydro-2H-chromen-2-yl]benzoic acid); read-out: EC50 (with co-corrector)
Experimental: Cell Surface Expression-Horse Radish Peroxidase (CSE-HRP) Assay The development was achieved by expressing the F508delCFTR mutation along with a horseradish peroxidase (HRP) in the fourth exofacial loop, and then measuring the HRP activity using luminescence readout from these cells, CFBE4lo-F508delCFTR-HRP, that were incubated overnight with the test corrector compounds, either without or with the co-corrector. […] The raw counts from the experiment were analyzed using Accelrys® Assay Explorer v3.3. […]
quantity: EC50

In [3]: df
Out[3]:
                                   compound  quantity  value_reported
0  COc1ccc(C(F)(F)F)cc1CN[C@H]1[C@H](C(C)(C)C)[C@@H](C(=O)O)N(C(=O)OC(C)C)[C@H]1c1ccccc1C(C)C [Example 83]      EC50          < 1 µM
1  COc1ccc(C(F)(F)F)cc1CN[C@@H]1[C@@H](C(C)(C)C)[C@H](C(=O)O)N(C(=O)[C@](OC)(c2ccccc2)C(F)(F)F)[C@@H]1c1ccccc1 [III-102]      EC50      1 to 10 µM
2  COc1ncc(-c2cccc(F)c2F)cc1CN[C@H]1[C@H](C(C)(C)C)[C@@H](C(=O)O)N(C(=O)C2CCCCC2)[C@H]1c1ccccc1 [II-346]      EC50      1 to 10 µM
3  CC(C)(C)[C@@H]1[C@@H](NCc2cccnc2N2CCOCC2)[C@@H](c2ccccc2)N(C(=O)C2CCCCC2)[C@H]1C(=O)O (racemic) [III-28]      EC50      1 to 10 µM
4  COc1ccc(C(C)(C)C)cc1CN[C@@H]1[C@@H](C(C)(C)C)[C@H](C(=O)NS(C)(=O)=O)N(C(=O)C2CCCCC2)[C@@H]1c1ccccc1 [Example I-203]      EC50      1 to 10 µM
5  COc1cc(C(C)(C)O)ccc1CN[C@H]1[C@H](C(C)(C)C)[C@@H](C(=O)O)N(C(=O)C2CCCCC2)[C@H]1c1ccccc1 [Example I-89]      EC50         > 10 µM

* * *

Reported EC50 values are given for each entry in this list.
Target: F508delCFTR (Homo sapiens, UniProt P13569, DEL508-508)
Construct: expressed in transfected cells; host or cells: CFBE41o- human lung-derived epithelial cells (CFBE4lo-F508delCFTR-HRP), doxycycline-inducible
Assay: Cell Surface Expression-Horse Radish Peroxidase (CSE-HRP) Assay
Format: cell-based
Conditions: CSE-HRP; with co-corrector (2 μM of 3-[(2R,4R)-4-({[1-(2,2-difluoro-1,3-benzodioxol-5-yl)cyclopropyl]carbonyl}amino)-7-methoxy-3,4-dihydro-2H-chromen-2-yl]benzoic acid); read-out: EC50 (with co-corrector)
Experimental: Cell Surface Expression-Horse Radish Peroxidase (CSE-HRP) Assay The development was achieved by expressing the F508delCFTR mutation along with a horseradish peroxidase (HRP) in the fourth exofacial loop, and then measuring the HRP activity using luminescence readout from these cells, CFBE4lo-F508delCFTR-HRP, that were incubated overnight with the test corrector compounds, either without or with the co-corrector. […] The raw counts from the experiment were analyzed using Accelrys® Assay Explorer v3.3. […]
quantity: EC50

>>> df
                                    molecule    value_reported
 0  COc1ccc(C(F)(F)F)cc1CN[C@@H]1[C@@H](C(C)(C)C)[C@H](C(=O)O)N(C(=O)C2COCCO2)[C@@H]1c1ccccc1 (mixture of isomers)  1000 to 10000 nM
 1  COc1ccc(Cl)cc1CN[C@H]1[C@H](C(C)(C)C)[C@@H](C(=O)O)N(C(=O)[C@H](OC)c2ccccc2)[C@H]1c1ccccc1N(C)C  1000 to 10000 nM
 2  Cc1ccc(CN[C@H]2[C@H](C(C)(C)C)[C@@H](C(=O)O)N(C(=O)C3CCCCC3)[C@H]2c2ccccc2)c(C)c1  1000 to 10000 nM
 3  COc1ccc(CN[C@H]2[C@H](C(C)(C)C)[C@@H](C(=O)O)N(C(=O)C3CCCCC3)[C@H]2c2ccccc2)c(C(F)(F)F)c1  1000 to 10000 nM
 4  COc1ccc(C(C)(C)C)cc1CN[C@H]1[C@H](C(C)(C)C)[C@@H](C(=O)O)N(C(=O)C(C)c2ccccc2)[C@H]1c1ccccc1 (stereo partly drawn)         < 1000 nM
 5  COc1ncc(C2CCC2)cc1CN[C@H]1[C@H](C(C)(C)C)[C@@H](C(=O)O)N(C(=O)C2CCC2)[C@H]1c1ccccc1C(F)(F)F  1000 to 10000 nM
 6  COc1ccc(-c2ccc(F)cc2C)cc1CN[C@H]1[C@H](C(C)(C)C)[C@@H](C(=O)O)N(C(=O)C2CCCCC2)[C@H]1c1ccccc1         < 1000 nM
 7  COc1cc2c(cc1CN[C@H]1[C@H](C(C)(C)C)[C@@H](C(=O)O)N(C(=O)[C@@H]3CCCCO3)[C@H]1c1cccc3c1OCC3)CCCC2  1000 to 10000 nM
 8  COc1ncc(C(F)(F)F)cc1CN[C@H]1[C@H](C(C)(C)C)[C@@H](C(=O)O)N(C(=O)C2CCC2)[C@H]1c1ccccc1C(F)(F)F  1000 to 10000 nM
 9  COc1ccc(C#N)cc1CN[C@@H]1[C@@H](C(C)(C)C)[C@H](C(=O)O)N(C(=O)C2CCCCC2)[C@@H]1c1ccccc1 (racemic)  1000 to 10000 nM
10  CC(C)(C)[C@H]1[C@H](NCc2cc(C(F)(F)F)cc(C(F)(F)F)c2)[C@H](c2ccccc2)N(C(=O)C2CCCCC2)[C@@H]1C(=O)O  1000 to 10000 nM
11  COc1cc(Cl)ccc1CN[C@H]1[C@H](C(C)(C)C)[C@@H](C(=O)O)N(C(=O)[C@H](OC)c2ccccc2)[C@H]1c1ccccc1 (relative stereo)  1000 to 10000 nM

* * *

Target: F508delCFTR (Homo sapiens, UniProt P13569, DEL508-508)
Construct: expressed in transfected cells; host or cells: CFBE41o- human lung-derived epithelial cells (CFBE4lo-F508delCFTR-HRP), doxycycline-inducible
Assay: Cell Surface Expression-Horse Radish Peroxidase (CSE-HRP) Assay
Format: cell-based
Conditions: with co-corrector (2 μM of 3-[(2R,4R)-4-({[1-(2,2-difluoro-1,3-benzodioxol-5-yl)cyclopropyl]carbonyl}amino)-7-methoxy-3,4-dihydro-2H-chromen-2-yl]benzoic acid); read-out: EC50 (with co-corrector)
Reported EC50 values are given for each entry in this list.

compound	tested_target	EC50
COc1ccc(C(C)(C)C)cc1CN[C@H]1[C@H](C(C)(C)C)[C@@H](C(=O)O)N(C(=O)[C@@H]2OCC[C@@H]2c2ccccc2)[C@H]1c1ccccc1 (relative stereo) [Example I-178]	F508delCFTR (Homo sapiens, UniProt P13569, DEL508-508)	1000 to 10000 nM
COc1ccc(C(C)(C)C)cc1CN[C@H]1[C@H](C(C)(C)C)[C@@H](C(=O)O)N(C(=O)OC(C)C)[C@H]1c1cccnc1OC(C)C [III-229]	F508delCFTR (Homo sapiens, UniProt P13569, DEL508-508)	< 1000 nM
COc1cc2c(cc1CN[C@H]1[C@H](C(C)(C)C)[C@@H](C(=O)O)N(C(=O)C3CCCCC3)[C@H]1c1ccccc1)C(C)(C)CCC2(C)C [III-119]	F508delCFTR (Homo sapiens, UniProt P13569, DEL508-508)	< 1000 nM
COc1cccc([C@@H]2[C@H](NCc3cc(C(F)(F)F)ccc3OC)[C@@H](C(C)(C)C)[C@H](C(=O)O)N2C(=O)C2CCCCO2)n1 (mixture of isomers) [Example I-23]	F508delCFTR (Homo sapiens, UniProt P13569, DEL508-508)	1000 to 10000 nM
COc1ccc(C2(C(F)(F)F)CC2)cc1CN[C@H]1[C@H](C(C)(C)C)[C@@H](C(=O)O)N(C(=O)C2CCCCC2)[C@H]1c1ccccc1F [II-353]	F508delCFTR (Homo sapiens, UniProt P13569, DEL508-508)	< 1000 nM
COc1ccc(C(C)C)cc1CN[C@H]1[C@H](C(C)(C)C)[C@@H](C(=O)O)N(C(=O)C2CCCCC2)[C@H]1c1ccccc1F [Example I-111]	F508delCFTR (Homo sapiens, UniProt P13569, DEL508-508)	< 1000 nM
